# reported combination Emax; entries follow
- System: NCI-H82 (Small Cell Lung Carcinoma)
- assayInfo: combination Emax (second highest fraction inhibited in the dose matrix, 72 h); higher = more inhibition; extreme values may be limits of the assay

# example entries with known answers
compound	combination Emax
C[C@@H]1COCCN1c1cc(C2([S@](C)(=N)=O)CC2)nc(-c2ccnc3[nH]ccc23)n1 [AZD6738] + Nc1ccn([C@@H]2O[C@H](CO)[C@@H](O)C2(F)F)c(=O)n1 [Gemcitabine] (first compound max 10 µM, 7x7, partner max 0.3 µM)	0.987
CCN(CCO)CCCOc1ccc2c(Nc3cc(CC(=O)Nc4cccc(F)c4)[nH]n3)ncnc2c1 [AZD2811] + C[C@@H]1COCCN1C2=NC(=NC(=C2)C3(CC3)[S@](=N)(=O)C)C4=C5C=CNC5=NC=C4 [AZD6738] (first compound max 1 µM, 7x7, partner max 10 µM)	0.922

Pending compound:
query: combination Emax for CS(=O)(=O)CCNCc1ccc(-c2ccc3ncnc(Nc4ccc(OCc5cccc(F)c5)c(Cl)c4)c3c2)o1 [Lapatinib] + C[C@@H](Oc1cc(-c2cnn(C3CCNCC3)c2)cnc1N)c1c(Cl)ccc(F)c1Cl [Crizotinib] (first compound max 10 µM, 7x7, partner max 10 µM) ?
result: 0.936

* * *

- Test system: KELLY (Neuroblastoma)
- assayInfo: combination Emax (second highest fraction inhibited in the dose matrix, 72 h); higher = more inhibition; extreme values may be limits of the assay
criterion met means recorded combination Emax is 0.7 or above; criterion not met means it is below 0.7.

Use the examples below as a reference point.
compound	class
CC(=O)c1c(C)c2cnc(Nc3ccc(N4CCNCC4)cn3)nc2n(C2CCCC2)c1=O [Palbociclib] + Cn1cnc2c(F)c(Nc3ccc(Br)cc3Cl)c(C(=O)NOCCO)cc21 [Selumetinib] (first compound max 10 µM, 7x7, partner max 10 µM)	criterion not met
O=C(c1cc(Cc2n[nH]c(=O)c3ccccc23)ccc1F)N1CCN(C(=O)C2CC2)CC1 [Olaparib] + CN(CC[C@H](CSC1=CC=CC=C1)NC2=C(C=C(C=C2)S(=O)(=O)NC(=O)C3=CC=C(C=C3)N4CCC(CC4)[C@H](C5=CC=CC=C5C6=CC=C(C=C6)Cl)O)S(=O)(=O)C(F)(F)F)CCO [AZD4320] (first compound max 10 µM, 7x7, partner max 1 µM)	criterion met
Cc1c2c(nn1C)CSCc1cc(n(C)n1)CSc1cc(c3ccccc3c1)OCCCc1c(C(=O)O)n(C)c3c-2c(Cl)ccc13 [AZD5991] + CN(C)CCCOc1ccc(-c2ccc3ncc4c(c3c2)n(C2CCOCC2)c(=O)n4C)cn1 [AZD0156] (first compound max 1 µM, 7x7, partner max 1 µM)	criterion met
CC1(C)CCC(CN2CCN(c3ccc(C(=O)NS(=O)(=O)c4ccc(NCC5CCOCC5)c([N+](=O)[O-])c4)c(Oc4cnc5[nH]ccc5c4)c3)CC2)=C(c2ccc(Cl)cc2)C1 [Venetoclax] + Cc1cc2ncnn2cc1Nc1ncc2c(n1)n(C1CCOCC1)c(=O)n2C [AZD7648] (first compound max 1 µM, 7x7, partner max 10 µM)	criterion met

# evaluate next
query: Answer whether combination Emax of CC1(C)CCC(CN2CCN(c3ccc(C(=O)NS(=O)(=O)c4ccc(NCC5CCOCC5)c([N+](=O)[O-])c4)c(Oc4cnc5[nH]ccc5c4)c3)CC2)=C(c2ccc(Cl)cc2)C1 [Venetoclax] + COc1cc(Nc2ncc3c(n2)-c2ccc(Cl)cc2C(c2c(F)cccc2OC)=NC3)ccc1C(=O)O [Alisertib] (first compound max 1 µM, 7x7, partner max 10 µM) is greater than or equal to 0.7.
result: criterion met

* * *

- Test system: HCC1806 (Breast Carcinoma)
- assayInfo: Bliss excess, mean over the matrix (fraction); higher = more synergy
quantityName: Bliss excess
// return a plain number; no unit text

compound	quantityName	measuredNumber
NC1(C(=O)N[C@@H](CCO)c2ccc(Cl)cc2)CCN(c2ncnc3[nH]ccc23)CC1 [Capivasertib] + Cn1cnc2c(F)c(Nc3ccc(Br)cc3Cl)c(C(=O)NOCCO)cc21 [Selumetinib] (first compound max 10 µM, 7x7, partner max 10 µM)	Bliss excess	0.0578
Cc1c2c(nn1C)CSCc1cc(n(C)n1)CSc1cc(c3ccccc3c1)OCCCc1c(C(=O)O)n(C)c3c-2c(Cl)ccc13 [AZD5991] + Cc1cc2ncnn2cc1Nc1ncc2c(n1)n(C1CCOCC1)c(=O)n2C [AZD7648] (first compound max 1 µM, 7x7, partner max 10 µM)	Bliss excess	-0.0203

query: For the compound C=CCn1c(=O)c2cnc(Nc3ccc(N4CCN(C)CC4)cc3)nc2n1-c1cccc(C(C)(C)O)n1 [AZD1775] + C[C@@H]1COCCN1C2=NC(=NC(=C2)C3(CC3)[S@](=N)(=O)C)C4=C5C=CNC5=NC=C4 [AZD6738] (first compound max 1 µM, partner max 10 µM) , what Bliss excess is on record?
result: 0.0166

* * *

Known Bliss excess of a selection of compounds
- Test system: RO82-W-1 (Thyroid Gland Carcinoma)
- assayInfo: Bliss excess, mean over the matrix (fraction); higher = more synergy
Enter the number alone.

compound	targetOrTestSystem	Bliss excess
Cc1nc(Nc2ncc(C(=O)Nc3c(C)cccc3Cl)s2)cc(N2CCN(CCO)CC2)n1 [Dasatinib] + CC(=O)Nc1cccc(-n2c(=O)n(C3CC3)c(=O)c3c(Nc4ccc(I)cc4F)n(C)c(=O)c(C)c32)c1 [Trametinib] (first compound max 2 µM, 7x7, partner max 1 µM)	RO82-W-1 (Thyroid Gland Carcinoma)	-0.0202
CC1(C)CCC(CN2CCN(c3ccc(C(=O)NS(=O)(=O)c4ccc(NCC5CCOCC5)c([N+](=O)[O-])c4)c(Oc4cnc5[nH]ccc5c4)c3)CC2)=C(c2ccc(Cl)cc2)C1 [Venetoclax] + C[C@@H](Nc1cc(F)cc(F)c1)c1cc(C(=O)N(C)C)cc2c(=O)cc(N3CCOCC3)oc12 [AZD8186] (first compound max 1 µM, 7x7, partner max 3 µM)	RO82-W-1 (Thyroid Gland Carcinoma)	-0.0455

query: Form field: reported Bliss excess of C=CCn1c(=O)c2cnc(Nc3ccc(N4CCN(C)CC4)cc3)nc2n1-c1cccc(C(C)(C)O)n1 [AZD1775] + C1CN(CCC1(C(=O)N[C@@H](CCO)C2=CC=C(C=C2)Cl)N)C3=NC=NC4=C3C=CN4 [Capivasertib] (first compound max 3 µM, partner max 3 µM)
result: -0.0678

* * *

- Test system: Ramos-2G6-4C10 (Burkitt's Lymphoma)
- assayInfo: combination Emax (second highest fraction inhibited in the dose matrix, 72 h); higher = more inhibition; extreme values may be limits of the assay
Catalogue of combination Emax values
Would you mind answering with just the numeric figure?

Worked cases, combination Emax given:
molecule	combination Emax
CN(CCO)CC[C@H](CSc1ccccc1)Nc1ccc(S(=O)(=O)NC(=O)c2ccc(N3CCC([C@@H](O)c4ccccc4-c4ccc(Cl)cc4)CC3)cc2)cc1S(=O)(=O)C(F)(F)F [AZD4320] + C[C@@H](Nc1cc(F)cc(F)c1)c1cc(C(=O)N(C)C)cc2c(=O)cc(N3CCOCC3)oc12 [AZD8186] (first compound max 1 µM, 7x7, partner max 3 µM)	0.685
CC1(C)CCC(CN2CCN(c3ccc(C(=O)NS(=O)(=O)c4ccc(NCC5CCOCC5)c([N+](=O)[O-])c4)c(Oc4cnc5[nH]ccc5c4)c3)CC2)=C(c2ccc(Cl)cc2)C1 [Venetoclax] + Cc1cc2ncnn2cc1Nc1ncc2c(n1)n(C1CCOCC1)c(=O)n2C [AZD7648] (first compound max 1 µM, 7x7, partner max 10 µM)	0.289
CS(=O)(=O)CCNCc1ccc(-c2ccc3ncnc(Nc4ccc(OCc5cccc(F)c5)c(Cl)c4)c3c2)o1 [Lapatinib] + Cn1cnc2c(F)c(Nc3ccc(Br)cc3Cl)c(C(=O)NOCCO)cc21 [Selumetinib] (first compound max 10 µM, 7x7, partner max 10 µM)	0.347
COc1cccc(OCCCN)c1-c1cc(Nc2cnc(C#N)cn2)n[nH]1 [Prexasertib] + C=CCn1c(=O)c2cnc(Nc3ccc(N4CCN(C)CC4)cc3)nc2n1-c1cccc(C(C)(C)O)n1 [AZD1775] (first compound max 1 µM, partner max 1 µM)	1
CC1(C)CCC(CN2CCN(c3ccc(C(=O)NS(=O)(=O)c4ccc(NCC5CCOCC5)c([N+](=O)[O-])c4)c(Oc4cnc5[nH]ccc5c4)c3)CC2)=C(c2ccc(Cl)cc2)C1 [Venetoclax] + C1CN(CCC1(C(=O)N[C@@H](CCO)C2=CC=C(C=C2)Cl)N)C3=NC=NC4=C3C=CN4 [Capivasertib] (first compound max 1 µM, 7x7, partner max 3 µM)	0.173
CS(=O)(=O)CCNCc1ccc(-c2ccc3ncnc(Nc4ccc(OCc5cccc(F)c5)c(Cl)c4)c3c2)o1 [Lapatinib] + C[C@@H](Oc1cc(-c2cnn(C3CCNCC3)c2)cnc1N)c1c(Cl)ccc(F)c1Cl [Crizotinib] (first compound max 10 µM, 7x7, partner max 10 µM)	0.898
CN(CCO)CC[C@H](CSc1ccccc1)Nc1ccc(S(=O)(=O)NC(=O)c2ccc(N3CCC([C@@H](O)c4ccccc4-c4ccc(Cl)cc4)CC3)cc2)cc1S(=O)(=O)C(F)(F)F [AZD4320] + CS(=O)(=O)CCNCc1ccc(-c2ccc3ncnc(Nc4ccc(OCc5cccc(F)c5)c(Cl)c4)c3c2)o1 [Lapatinib] (first compound max 1 µM, 7x7, partner max 10 µM)	0.961
COc1cccc(OCCCN)c1-c1cc(Nc2cnc(C#N)cn2)n[nH]1 [Prexasertib] + Cc1cc2ncnn2cc1Nc1ncc2c(n1)n(C1CCOCC1)c(=O)n2C [AZD7648] (first compound max 1 µM, 7x7, partner max 10 µM)	1
CN(CCO)CC[C@H](CSc1ccccc1)Nc1ccc(S(=O)(=O)NC(=O)c2ccc(N3CCC([C@@H](O)c4ccccc4-c4ccc(Cl)cc4)CC3)cc2)cc1S(=O)(=O)C(F)(F)F [AZD4320] + CC(=O)O[C@H]1C(=O)[C@@]2(C)[C@H]([C@H](OC(=O)c3ccccc3)[C@]3(O)C[C@H](OC(=O)[C@H](O)[C@@H](NC(=O)c4ccccc4)c4ccccc4)C(C)=C1C3(C)C)[C@]1(OC(C)=O)CO[C@@H]1C[C@@H]2O [Paclitaxel] (first compound max 1 µM, 7x7, partner max 3 µM)	0.872
Cc1c2c(nn1C)CSCc1cc(n(C)n1)CSc1cc(c3ccccc3c1)OCCCc1c(C(=O)O)n(C)c3c-2c(Cl)ccc13 [AZD5991] + C[C@@H](Nc1cc(F)cc(F)c1)c1cc(C(=O)N(C)C)cc2c(=O)cc(N3CCOCC3)oc12 [AZD8186] (first compound max 1 µM, 7x7, partner max 3 µM)	0.959

query: I'd like to know its combination Emax. The molecule in question is C=CCn1c(=O)c2cnc(Nc3ccc(N4CCN(C)CC4)cc3)nc2n1-c1cccc(C(C)(C)O)n1 [AZD1775] + CCc1c2c(nc3ccc(O)cc13)-c1cc3c(c(=O)n1C2)COC(=O)[C@]3(O)CC [SN-38] (first compound max 1 µM, partner max 0.3 µM)
result: 1

query: Returns the measured combination Emax for the input molecule. Input: C=CCn1c(=O)c2cnc(Nc3ccc(N4CCN(C)CC4)cc3)nc2n1-c1cccc(C(C)(C)O)n1 [AZD1775] + O=C(c1cc(Cc2n[nH]c(=O)c3ccccc23)ccc1F)N1CCN(C(=O)C2CC2)CC1 [Olaparib] (first compound max 1 µM, partner max 10 µM)
result: 1
